experiment: Cyclosporine, tacrolimus and sirolimus serum levels in transplant recipients; assay type: in vivo; conditions: human, Tx aPL− (n = 59), 12 months post-transplantation, mean ± SEM, read-out: 12-Mo Sirolimus levels

MOLECULE	concentration at 12 months
CO[C@H]1C[C@@H]2CC[C@@H](C)[C@@](O)(O2)C(=O)C(=O)N2CCCC[C@H]2C(=O)O[C@H]([C@H](C)C[C@@H]2CC[C@@H](O)[C@H](OC)C2)CC(=O)[C@H](C)/C=C(\C)[C@@H](O)[C@@H](OC)C(=O)[C@H](C)C[C@H](C)/C=C/C=C/C=C/1C [sirolimus, rapamycin]	16 ng/mL

* * *

assay: Cyclosporine, tacrolimus and sirolimus serum levels in transplant recipients; type: in vivo; conditions: human, Tx aPL+ Sirolimus− (n = 27), 12 months post-transplantation, mean ± SEM, read-out: 12-Mo Tacrolimus trough levels

COMPOUND	UNIT_LABEL	concentration at 12 months
C=CC[C@@H]1/C=C(\C)C[C@H](C)C[C@H](OC)[C@H]2O[C@@](O)(C(=O)C(=O)N3CCCC[C@H]3C(=O)O[C@H](/C(C)=C/[C@@H]3CC[C@@H](O)[C@H](OC)C3)[C@H](C)[C@@H](O)CC1=O)[C@H](C)C[C@@H]2OC [Tacrolimus]	ng/mL	10.3

* * *

test: Cyclosporine, tacrolimus and sirolimus serum levels in transplant recipients; type: in vivo; details: human, Tx aPL− (n = 59), 12 months post-transplantation, mean ± SEM, read-out: 12-Mo Tacrolimus trough levels

COMPOUND_SMILES	concentration at 12 months
C=CC[C@@H]1/C=C(\C)C[C@H](C)C[C@H](OC)[C@H]2O[C@@](O)(C(=O)C(=O)N3CCCC[C@H]3C(=O)O[C@H](/C(C)=C/[C@@H]3CC[C@@H](O)[C@H](OC)C3)[C@H](C)[C@@H](O)CC1=O)[C@H](C)C[C@@H]2OC	10 ng/mL

* * *

test: Cyclosporine, tacrolimus and sirolimus serum levels in transplant recipients; format: in vivo; conditions: human, Tx aPL+ Sirolimus+ (n = 10), 12 months post-transplantation, mean ± SEM, read-out: 12-Mo Sirolimus levels
RECORDED_ENDPOINT: concentration at 12 months (ng/mL)

COMPOUND_SMILES	MEASURED_VALUE
CO[C@H]1C[C@@H]2CC[C@@H](C)[C@@](O)(O2)C(=O)C(=O)N2CCCC[C@H]2C(=O)O[C@H]([C@H](C)C[C@@H]2CC[C@@H](O)[C@H](OC)C2)CC(=O)[C@H](C)/C=C(\C)[C@@H](O)[C@@H](OC)C(=O)[C@H](C)C[C@H](C)/C=C/C=C/C=C/1C	18
